Recorded values, source ChEMBL document CHEMBL3352775.

Assign Kd to each entry below.
tgt: UniProt P00338
experiment: Inhibition of human recombinant carboxy-terminal His-tagged LDHA by SPR assay
Report as a plain number; the unit nM is understood.

Request: I am curious: what Kd value has been reported for O=C1CC(c2c(Cl)ccc(Br)c2Cl)CC(O)=C1Sc1ccccc1Cl (stereo unspecified) ?
Result: 370

Request: Which Kd reading was recorded for the molecule O=C1CC(c2ccccc2Cl)CC(O)=C1Sc1ccccc1Cl (stereo unspecified) ?
Result: 8200

Request: For the molecule shown here, O=C1CC(c2c(Cl)cccc2C(F)(F)F)CC(O)=C1Sc1ccccc1Cl (stereo unspecified) , give the reported Kd.
Result: 500

Request: For O=C1CC(c2ccc(Cl)cc2)CC(O)=C1Sc1ccccc1Cl (stereo unspecified) , what is its reported Kd?
Result: 27000

Request: Entry N#Cc1ccccc1SC1=C(O)CC(c2c(Cl)cccc2Br)CC1=O (stereo unspecified) has what Kd?
Result: 240

Request: Suppose we examine the molecule N#Cc1ccccc1SC1=C(O)CC(c2c(Cl)cccc2Cl)CC1=O (stereo unspecified) ; what Kd value has been reported?
Result: 430
